Entry source: ChEMBL document CHEMBL1201862

System: SN12C
Measurement notes: NCI tumour cell line growth inhibition, 48 h
Calls of active or inactive are those of the source. No stated cut-off is given here; in the data, active = GI50 up to about 1.1 µM and inactive = higher.
Observation type: GI50

Compound: CC1CC[C@@]2(OC1)OC1CC3C4CCC5C[C@@H](OC6OC(CO)C(OC7OC(CO)C(O)C(OC8OC(CO)C(O)C(OC9OC(CO)C(O)C(O)C9O)C8O)C7OC7OC(CO)C(O)C(O)C7O)C(O)C6O)[C@H](O)C[C@]5(C)C4CC[C@]3(C)C1[C@@H]2C (some centres undefined)
Observation type: GI50
Obs value: > 80.5 µM (inactive)
--
Compound: O=C1C=CC(=O)c2ncccc21
Observation type: GI50
Obs value: 5.14 µM (inactive)
--
Compound: Cc1cccc2c1C(=O)/C(=C/c1ccccc1C(=O)O)C2
Observation type: GI50
Obs value: > 100 µM (inactive)
--
Compound: C=C1CC(COc2cc(=O)oc3ccccc23)(c2ccccc2)OC1=O (centres undefined)
Observation type: GI50
Obs value: 1.91 µM (inactive)
--
Compound: CCCCNC(=O)C1C(=O)N(CCCC)C(=O)/C1=N\N (centres undefined)
Observation type: GI50
Obs value: > 100 µM (inactive)
--
Compound: CCN(CC)CCNC(=O)c1ccc([N+](=O)[O-])cc1OC
Observation type: GI50
Obs value: > 100 µM (inactive)
--
Compound: N#CC(C#N)/N=N/c1ccc(-c2nc3ccccc3s2)cc1
Observation type: GI50
Obs value: 2.78 µM (inactive)
--
Compound: CC(C)c1cc(C(C)C)c(S(=O)(=O)N/N=C2\CC3CCC2(C)C3(C)C)c(C(C)C)c1 (centres undefined)
Observation type: GI50
Obs value: 12.4 µM (inactive)
--
Compound: CN(Cc1cnc2c(n1)C(N)=NN(N)N2)c1ccc(C(=O)NC(CCP(=O)(O)O)C(=O)O)cc1 (centres undefined)
Observation type: GI50
Obs value: > 63.2 µM (inactive)

====

System: HOP-62
Measurement notes: NCI tumour cell line growth inhibition, 48 h
Calls of active or inactive are those of the source. No stated cut-off is given here; in the data, active = GI50 up to about 1.1 µM and inactive = higher.
A collection of molecules and their measured GI50

Molecule: CCN(CC)CCCC(C)NC(=O)c1ccc2c(c1)C(=O)c1ccccc1C2=O (centres undefined)
GI50: 27.2 µM (inactive)

Molecule: CCOc1ccccc1NC(=O)C1=C(C)NC(C)=C(C(=O)Nc2ccccc2OCC)C1c1ccc([N+](=O)[O-])cc1
GI50: > 100 µM (inactive)

Molecule: O=C1c2cccc(NCCCNCCO)c2C(=O)c2cccc(NCCCNCCO)c21
GI50: 1.96 µM (inactive)

Molecule: CCOc1ccc(NC2=NC(=O)C(CC(=O)Nc3ccc(Cl)cc3Cl)S2)cc1 (centres undefined)
GI50: > 100 µM (inactive)

====

Tested on: HOP-18
Measurement notes: NCI tumour cell line growth inhibition, 48 h
Active and inactive are the calls of the source. Rule as the data show it: active = GI50 up to about 1.1 µM and inactive = higher.
Below is a list of entries, each paired with its recorded GI50 value.
Observation type: GI50

Molecule: CN(C)CCC(=O)N1C/C(=C\c2ccc(Cl)c(Cl)c2)C(=O)/C(=C/c2ccc(Cl)c(Cl)c2)C1
System under test: HOP-18
Obs value: 1.02 µM (active)

Molecule: CCN1CC2(CO)CCC(OC)C34C5CC6C(OC)CC(O)(C5C6OC)C(O)(C(OC)C23)C14 (stereo not given)
System under test: HOP-18
Obs value: > 375 µM (inactive)

Molecule: CN(C)c1snc2c1c(=O)n(C)c(=O)n2C
System under test: HOP-18
Obs value: > 100 µM (inactive)

Molecule: FC(F)(F)c1ccccc1C1SCc2nc3ccccc3n21 (stereo not given)
System under test: HOP-18
Obs value: > 100 µM (inactive)

Molecule: N#Cc1c(N)oc2cc3c(C#N)c(N)oc3cc12
System under test: HOP-18
Obs value: > 100 µM (inactive)

Molecule: O=C1NC(=S)NC(=O)C1=C(O)Nc1ccccc1
System under test: HOP-18
Obs value: 42.4 µM (inactive)

Molecule: C=CCCC1(C)CCCNC1=S (stereo not given)
System under test: HOP-18
Obs value: > 100 µM (inactive)

Molecule: CCC1(N=[N+]=[N-])C(=O)c2ccccc2N(c2ccccc2)C1=O (stereo not given)
System under test: HOP-18
Obs value: > 100 µM (inactive)

Molecule: COc1cc(/C=N/N=C(\N)NO)c([N+](=O)[O-])cc1OC
System under test: HOP-18
Obs value: 21 µM (inactive)

Molecule: CC(=O)C1=CCC2c3[nH]c4ccccc4c3CCN2C1 (stereo not given)
System under test: HOP-18
Obs value: > 100 µM (inactive)
